# System: MIA rat model of OA
# experimentSummary: MIA trial 2 histopathology (same doses as dRS test)
# Format: in vivo
# runConditions: group mean; tacrolimus 0.3 mg/kg, other drugs single dose
For each of the molecules below, state its Bone resorption, percent of surface, MFC.
Answers are plain numbers, in %.

Some solved cases for reference:
| molecule | Bone resorption, percent of surface, MFC (%) |
| --- | --- |
| CC1(C)O[C@@H]2C[C@H]3[C@@H]4C[C@H](F)C5=CC(=O)C=C[C@]5(C)[C@@]4(F)[C@@H](O)C[C@]3(C)[C@]2(C(=O)CO)O1 [Fluocinolone, Fluocinolone Acetonide] | 38 |
| COc1cc(/C=C/C(=O)CC(=O)/C=C/c2ccc(O)c(OC)c2)ccc1O [Curcumin, Diferuloylmethane] | 88 |
| Clc1cccc(Cl)c1N=C1NCCN1 [Clonidine] | 63 |

Could you now look at the following molecule, please?
input: Which measured Bone resorption, percent of surface, MFC value corresponds to C=CC[C@@H]1/C=C(\C)C[C@H](C)C[C@H](OC)[C@H]2O[C@@](O)(C(=O)C(=O)N3CCCC[C@H]3C(=O)O[C@H](/C(C)=C/[C@@H]3CC[C@@H](O)[C@H](OC)C3)[C@H](C)[C@@H](O)CC1=O)[C@H](C)C[C@@H]2OC [Tacrolimus] ?
output: 70

###

# Test system: SW982
# experimentSummary: Synovial toxicity (CellTiter-Glo), with or without TNF-α
quantityName: Non-toxic range (Synovial)

| compound | Non-toxic range (Synovial) |
| --- | --- |
| CC1(C)O[C@@H]2C[C@H]3[C@@H]4C[C@H](F)C5=CC(=O)C=C[C@]5(C)[C@@]4(F)[C@@H](O)C[C@]3(C)[C@]2(C(=O)CO)O1 [Fluocinolone, Fluocinolone Acetonide] | 1.56 to 100 µM |
| N#Cc1c(C2CCNCC2)cc(-c2c(O)cccc2OCC2CC2)nc1N | 0.3 to 2 µM |
| CNC(=O)[C@H](Cc1c[nH]c2ccccc12)NC(=O)[C@@H](CC(=O)NO)CC(C)C | 0.33 to 25 µM |
| Oc1ccc(/C=C/c2cc(O)cc(O)c2)cc1 | 3.12 to 100 µM |
| Cc1ccc2nc(NCCN)c3ncc(C)n3c2c1 | 0.24 to 7.8 µM |

Report Non-toxic range (Synovial) for every entry below.
1. CC(=O)Oc1cccc2c1C(=O)c1c(OC(C)=O)cc(C(=O)O)cc1C2=O
2. O=C(c1ccccc1)c1ccc2n1CCC2C(=O)O (stereo not drawn)
3. CC[C@@H]1/C=C(\C)C[C@H](C)C[C@H](OC)[C@H]2O[C@@](O)(C(=O)C(=O)N3CCCC[C@H]3C(=O)O[C@H](/C(C)=C/[C@@H]3CC[C@H](Cl)[C@H](OC)C3)[C@H](C)[C@@H](O)CC1=O)[C@H](C)C[C@@H]2OC
4. CC1=C(CO)C(=O)O[C@@H]([C@@H](C)[C@H]2CC[C@H]3[C@@H]4C[C@H]5O[C@]56[C@@H](O)C=CC(=O)[C@]6(C)[C@H]4CC[C@]23C)C1

output:
["1.5 to 54.3 µM", "0.625 to 40 µM", "0.625 to 40 µM", "Toxic"]

###

# Tested on: MMT/MCLT rat model of OA
# experimentSummary: MMT/MCLT trial 1 histopathology (same doses)
# Format: in vivo
# runConditions: mean; low or only dose
Kindly supply the reported Tibial cartilage degeneration score, zone 3 values for the records listed here.
Answers are plain numbers.

Examples with answers:
| compound | measurement |
| --- | --- |
| CC1=C(CO)C(=O)O[C@@H]([C@@H](C)[C@H]2CC[C@H]3[C@@H]4C[C@H]5O[C@]56[C@@H](O)C=CC(=O)[C@]6(C)[C@H]4CC[C@]23C)C1 | 0.04 |
| NCCCC(O)(P(=O)(O)O)P(=O)(O)O [Alendronate, Alendronate sodium] | 0.00 |

For the 4 compounds below, give their Tibial cartilage degeneration score, zone 3 values.
1. COc1cc(/C=C/C(=O)CC(=O)/C=C/c2ccc(O)c(OC)c2)ccc1O
2. Clc1cccc(Cl)c1N=C1NCCN1
3. C=CC[C@@H]1/C=C(\C)C[C@H](C)C[C@H](OC)[C@H]2O[C@@](O)(C(=O)C(=O)N3CCCC[C@H]3C(=O)O[C@H](/C(C)=C/[C@@H]3CC[C@@H](O)[C@H](OC)C3)[C@H](C)[C@@H](O)CC1=O)[C@H](C)C[C@@H]2OC
4. CC1(C)O[C@@H]2C[C@H]3[C@@H]4C[C@H](F)C5=CC(=O)C=C[C@]5(C)[C@@]4(F)[C@@H](O)C[C@]3(C)[C@]2(C(=O)CO)O1 [Fluocinolone, Fluocinolone Acetonide]

output:
0.04
0.00
0.00
0.04

input: Bench note: what Tibial cartilage degeneration score, zone 3 did "CN1CC[C@]23c4c5ccc(O)c4O[C@H]2[C@@H](O)C=C[C@H]3[C@H]1C5" show?
output: 0.04
